Measured target: human CCR6 (Homo sapiens)
Construct: expressed in transfected cells; host or cells: HEK-293
Sequence (P51684 whole entry): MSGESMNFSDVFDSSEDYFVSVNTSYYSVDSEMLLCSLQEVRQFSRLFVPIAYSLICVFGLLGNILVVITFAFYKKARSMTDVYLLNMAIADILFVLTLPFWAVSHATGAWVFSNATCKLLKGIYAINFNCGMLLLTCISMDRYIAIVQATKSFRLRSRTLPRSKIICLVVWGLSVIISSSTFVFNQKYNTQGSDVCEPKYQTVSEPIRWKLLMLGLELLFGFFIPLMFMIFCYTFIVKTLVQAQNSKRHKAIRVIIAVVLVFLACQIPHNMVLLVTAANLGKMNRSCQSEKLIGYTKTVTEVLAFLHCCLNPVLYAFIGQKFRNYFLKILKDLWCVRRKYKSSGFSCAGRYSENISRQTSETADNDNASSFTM
Test: FLIPR assay (inhibition of CCL20-induced calcium signal)
Format: cell-based
Particulars: HEK-293 cells expressing human CCR6; mean values where determined several times; read-out: FLIPR IC50
Measure: log10 IC50 (log10 of the value in µM)

{"columns": ["Compound", "Measure", "Readout number"],
 "data": [
  ["CC(=O)N1CC[C@H](c2nc(-c3cncc([C@@](O)(c4ccc(C(C)C)cc4)C4(C)CN(C)C4)c3)no2)C[C@@H]1C", "log10 IC50", -0.86],
  ["CC(C)c1ccc([C@](O)(c2cncc(CCC(C)(O)C(F)(F)F)c2)C2(C)CN(C)C2)cc1 (stereo partly drawn)", "log10 IC50", -1.33],
  ["CCC(O)(C#Cc1cncc([C@@](O)(c2ccc(C(C)C)cc2)C2(C)CN(C)C2)c1)c1cc(C)ncn1 (stereo partly drawn)", "log10 IC50", -1.29],
  ["CN1CC(C)([C@](O)(c2ccc(C3(C(F)(F)F)CC3)cc2)c2cncc(N3CC[C@H](C(C)(C)O)C3)c2)C1", "log10 IC50", -1.36],
  ["CC(C)C[C@H]1CC(=O)N(c2cncc([C@@](O)(c3ccc(C(C)C)cc3)C3(C)CN(C)C3)c2)C1", "log10 IC50", -1.36],
  ["COc1ccc(C(O)(c2ccc(OC(F)(F)F)cc2)C2(C)CN(C)C2)cn1 (stereo not drawn)", "log10 IC50", -0.51],
  ["CC(C)c1ccc([C@](O)(c2cncc(-c3nc(C4CCOCC4)no3)c2)C2(C)CN(C)C2)cc1", "log10 IC50", -1.01],
  ["CC(C)c1ccc([C@](O)(c2cnnc(N3CC4OCCC4C3=O)c2)C2(C)CN(C)C2)cc1 (stereo partly drawn)", "log10 IC50", -0.55],
  ["CC(C)c1ccc([C@](O)(c2cncc(-c3noc(CN4CCNC4=O)n3)c2)C2(C)CN(C)C2)cc1", "log10 IC50", -0.73],
  ["COCC(C)(C)c1nc(-c2cncc([C@@](O)(c3ccc(C(C)C)cc3)C3(C)CN(C)C3)c2)no1", "log10 IC50", -1.21],
  ["CC(C)c1ccc([C@](O)(c2cnnc(N3CC4(CCOCC4)CC3=O)c2)C2(C)CN(C)C2)cc1", "log10 IC50", -0.58],
  ["CC(C)c1ccc([C@](O)(c2cnnc(Oc3ccc4[nH]c(=O)oc4c3)c2)C2(C)CN(C)C2)cc1", "log10 IC50", -1.54],
  ["COC1(c2nc(-c3cncc([C@@](O)(c4ccc(C(C)C)cc4)C4(C)CN(C)C4)c3)no2)CCC1", "log10 IC50", -1.53],
  ["[2H]C([2H])([2H])C(=O)N1CC(F)(c2nc(-c3cncc([C@@](O)(c4ccc(C(C)C)cc4)C4(C)CN(C)C4)c3)no2)C1", "log10 IC50", -0.60],
  ["COCCCc1cncc(C(O)(c2ccc(C(C)C)cc2)C2(C)CN(C)C2)c1 (stereo not drawn)", "log10 IC50", -1.00]
]}

* * *

Measured target: human CCR6 (Homo sapiens)
Construct: expressed in transfected cells; host or cells: HEK-293
Test: FLIPR assay (inhibition of CCL20-induced calcium signal)
Assay type: cell-based
Particulars: HEK-293 cells expressing human CCR6; mean values where determined several times; read-out: FLIPR IC50
Procedure: FLIPR assay: The bioactivity of compounds is tested in a fluorometric imaging plate reader (FLIPR: Molecular Devices) using engineered HEK-293 cells expressing the human CCR6 (GenBank: AY242126). […] Changes in fluorescence are monitored before and after addition of the test compounds and agonist. […] The calculated IC50 values may fluctuate depending on the daily assay performance. […]
pIC50: −log10 of the molar value.
pIC50 overview
Measure: pIC50

{"columns": ["Molecule", "Measured target", "Readout number"],
 "data": [
  ["CC(=O)N1CCCC(Cc2nc(-c3cncc([C@@](O)(c4ccc(C(C)C)cc4)C4(C)CN(C)C4)c3)no2)C1 (stereo partly drawn)", "human CCR6 (Homo sapiens)", 7.00],
  ["CC(C)c1ccc(C(O)(c2ccnc(N3CCC[C@@H]3CO)c2)C2(C)CN(C)C2)cc1 (stereo partly drawn)", "human CCR6 (Homo sapiens)", 6.60],
  ["CC(C)c1ccc([C@](O)(c2cncc(-c3noc(C(C)(C)O)n3)c2)C2(C)CN(C3CC3)C2)cc1", "human CCR6 (Homo sapiens)", 7.39],
  ["CC(C)c1ccc([C@](O)(c2cncc(C3CC3C(C)(C)O)c2)C2(C)CN(C)C2)cc1 (stereo partly drawn)", "human CCR6 (Homo sapiens)", 6.73],
  ["CN1CC(C)([C@](O)(c2ccc(C(F)(C(F)(F)F)C(F)(F)F)cc2)c2cncc(-c3noc(C(C)(C)O)n3)c2)C1", "human CCR6 (Homo sapiens)", 6.82],
  ["CCc1ccc([C@](O)(c2cncc(N3C[C@@H]4C[C@H]3CO4)c2)C2(C)CN(C)C2)cc1", "human CCR6 (Homo sapiens)", 6.56],
  ["CCC1([C@](O)(c2ccc(OC(F)(F)F)cc2)c2cncc(C#CC(C)(O)c3cccc(C)n3)c2)CN(C)C1 (stereo partly drawn)", "human CCR6 (Homo sapiens)", 6.46],
  ["CC(C)c1ccc([C@](O)(c2cnnc(Oc3ccc(CCO)cc3)c2)C2(C)CN(C)C2)cc1", "human CCR6 (Homo sapiens)", 7.22],
  ["CC(C)c1ccc([C@](O)(c2cncc([C@@H]3CCC(C)(O)C3)c2)C2(C)CN(C)C2)cc1 (single isomer, unassigned)", "human CCR6 (Homo sapiens)", 7.03],
  ["CC(C)c1ccc([C@](O)(c2cncc(-c3noc(C4(C)CCN(C)C4=O)n3)c2)C2(C)CN(C)C2)cc1 (stereo partly drawn)", "human CCR6 (Homo sapiens)", 6.96],
  ["CC(C)c1ccc([C@](O)(c2cncc(CCC(O)C(C)C)c2)C2(C)CN(C)C2)cc1 (stereo partly drawn)", "human CCR6 (Homo sapiens)", 7.71],
  ["CC(C)c1ccc([C@](O)(c2cncc(N3CC(C4CC4)CC3=O)c2)C2(C)CN(C)C2)cc1 (stereo partly drawn)", "human CCR6 (Homo sapiens)", 7.22],
  ["CC(C)c1ccc([C@](O)(c2cncc(N3CC(c4ccc(C(F)(F)F)nc4)CC3=O)c2)C2(C)CN(C)C2)cc1 (stereo partly drawn)", "human CCR6 (Homo sapiens)", 6.64],
  ["CC(C)c1ccc([C@](O)(c2cncc(CCC(O)(c3ccccn3)C3CC3)c2)C2(C)CN(C)C2)cc1 (stereo partly drawn)", "human CCR6 (Homo sapiens)", 7.83],
  ["CC(C)c1ccc([C@](O)(c2cncc(-c3noc(C(C)(C)CO)n3)c2)C2(C)CN(C)C2)cc1", "human CCR6 (Homo sapiens)", 7.13]
]}
